# credit: patent US10189791B2

Assay: Tissue distribution after single gavage in C57BL/6 mice (LC-MS)
Type: in vivo
Conditions: C57BL/6, mouse, liver, oral, six hours after gavage with 1 μmole; read-out: concentration in the liver
Description: To determine concentrations of the CDDO-Im analogs in various organs, an in vivo evaluation was conducted in C57BL/6 mice. Six hours after a single gavage with 1 μmole of compound, the mice were sacrificed and the tissues were collected.
Readout Name: concentration at 6 h (nM)
Could you give me the number in nM? Just the number is fine.

CC1(C)CCC2(C(=O)n3ccnc3)CCC3(C)C(C(=O)C=C4C5(C)C=C(C#N)C(=O)C(C)(C)C5CCC43C)C2C1 (stereo not shown) [CDDO-Im 1, reference compound] has a reported concentration at 6 h of 1700
